Recorded values, source PubChem BioAssay AID248.

- System: L1210 leukemia ip in BDF1 mice, survival T/C
- TEST_SUMMARY: NCI In Vivo Anticancer Drug Screen. Data for tumor model L1210 Leukemia (intraperitoneal) in B6D2F1 (BDF1) mice
- CONDITIONS_USED: endpoint: mean survival time; dose: 25.0 mg/kg/injection; schedule: Q04DX002 (ip); vehicle: saline; higher = longer survival
Inconclusive results and toxic doses are left out.
This section presents molecules with their documented T/C values.

Some molecules with recorded T/C:
MOLECULE	VALUE_KIND	MEASURED_RESULT
CN(C)CCCN=C(N)CCl	T/C	108 % of control
CC(=O)OC1CC2(CO2)C2CC3OC3(C)C2C2OC(=O)C(C)C12 (configuration not stated)	T/C	92 % of control
ON=C1CSCSC1	T/C	94 % of control

Now examine the next entry.
For record NC(N)=NCC(CCN1CCCCC1)c1cccc2ccccc12 (configuration not stated) the listed T/C is 93 % of control

====

- System: L1210 leukemia ip in BDF1 mice, survival T/C
- TEST_SUMMARY: NCI In Vivo Anticancer Drug Screen. Data for tumor model L1210 Leukemia (intraperitoneal) in B6D2F1 (BDF1) mice
- CONDITIONS_USED: endpoint: mean survival time; dose: 150.0 mg/kg/injection; schedule: Q04DX003 (ip); vehicle: saline; higher = longer survival
Toxic doses and inconclusive results are not listed.
This section presents compounds with their documented T/C values.

Some compounds with recorded T/C:
COMPOUND	T/C
c1ccc2c(c1)c(N1CCOCC1)nn1nnnc21	98 % of control
NCCSC1(O)C(=O)c2ccccc2C1=O	111 % of control
O=C(O)CCCCCN1C(=O)CCC1=O	103 % of control
CCC1(C)N=C(N)N=C(N)N1c1ccc(Cl)c(Cl)c1 (stereo not given)	105 % of control

Per the reported L1210 leukemia ip in BDF1 mice, survival T/C data, COC(=O)c1[nH]cnc1N1CC[N+](CCCl)=N1 has T/C of 102 % of control

====

- System: L1210 leukemia ip in BDF1 mice, survival T/C
- TEST_SUMMARY: NCI In Vivo Anticancer Drug Screen. Data for tumor model L1210 Leukemia (intraperitoneal) in B6D2F1 (BDF1) mice
- CONDITIONS_USED: endpoint: mean survival time; dose: 50.0 mg/kg/injection; schedule: Q01DX001 (ip); vehicle: saline; higher = longer survival
Toxic doses and inconclusive results are not listed.
This section presents compounds with their documented T/C values.

COMPOUND	MEASURED_RESULT
CC1(C)C[N+](C)(Cc2ccccc2)N=C1[O-] (centres undefined)	94 % of control

Per the reported L1210 leukemia ip in BDF1 mice, survival T/C data, Cc1ccc2c(c1[N+](=O)[O-])C(=O)c1ccccc1C2=O has T/C of 96 % of control

Per the reported L1210 leukemia ip in BDF1 mice, survival T/C data, Cc1cc(C)c(SSc2c(C)cc(C)cc2C)c(C)c1 has T/C of 106 % of control

Per the reported L1210 leukemia ip in BDF1 mice, survival T/C data, O=c1[nH]c(=O)n(C2CC(O)C(CO)O2)cc1F (centres undefined) has T/C of 107 % of control

Per the reported L1210 leukemia ip in BDF1 mice, survival T/C data, CCCCCCCCCCCCCCCCCC[As](=O)(O)CCCCCCCCCCCCCCCCCC has T/C of 97 % of control

Per the reported L1210 leukemia ip in BDF1 mice, survival T/C data, O=C(O)C1CCCCC1/C=N/Nc1ccc([N+](=O)[O-])cc1[N+](=O)[O-] (centres undefined) has T/C of 93 % of control

Per the reported L1210 leukemia ip in BDF1 mice, survival T/C data, NC1=NC(c2ccccc2)N(c2ccccc2)C(N)=N1 (centres undefined) has T/C of 99 % of control

Per the reported L1210 leukemia ip in BDF1 mice, survival T/C data, OCC(O)C(O)C(O)C(c1ccccc1)c1ccccc1 (centres undefined) has T/C of 107 % of control

Per the reported L1210 leukemia ip in BDF1 mice, survival T/C data, C=C1C(=O)N(C)CCC1(O)C(CC)C(=O)OC (centres undefined) has T/C of 98 % of control
